Data origin, for the record: ChEMBL document CHEMBL4665720

- ASSAY_NOTES: Solubility of the compound in 0.1 M sodium phosphate buffer at pH 7.4
- Format: physicochemical
- EXPERIMENTAL_PARAMETERS: sodium phosphate buffer, read-out: solubility
MEASURE_NAME: solubility

Lookup result for "O=C(Nc1ccc(OC(F)(F)F)cc1)N[C@H]1CC[C@H](Oc2ccc(C(=O)O)cc2)CC1" ; measured solubility: 5 µM

* * *

- TEST_SYSTEM: Bifunctional epoxide hydrolase 2 (Homo sapiens, UniProt P34913)
- ASSAY_NOTES: Inhibition of human soluble epoxide hydrolase by kinetic fluorescent assay
MEASURE_NAME: log10(IC50) (log10 of the value in µM)
Values reflect log10 of reported IC50 (µM).

With Bifunctional epoxide hydrolase 2 (Homo sapiens, UniProt P34913) as the test system, O=C(NCCCCNC(=O)NC1CC2C=CC1C2)NC1CC2C=CC1C2 (stereo not drawn) showed log10(IC50) of -1.68

With Bifunctional epoxide hydrolase 2 (Homo sapiens, UniProt P34913) as the test system, "O=C(NCCCCCCNC(=O)NCc1ccco1)NCc1ccco1" showed log10(IC50) of -1.06

With Bifunctional epoxide hydrolase 2 (Homo sapiens, UniProt P34913) as the test system, O=C(NC1CC2C=CC1C2)NC1C2CC3CC(C2)CC1C3 (stereo not drawn) showed log10(IC50) of -3.05

With Bifunctional epoxide hydrolase 2 (Homo sapiens, UniProt P34913) as the test system, CCCCCCCCNC(=O)NC1CC2CCC1(C)C2(C)C (stereo not drawn) showed log10(IC50) of -2.19

With Bifunctional epoxide hydrolase 2 (Homo sapiens, UniProt P34913) as the test system, O=C(Nc1ccccc1F)NC1CC2CCC1C2 (stereo not drawn) showed log10(IC50) of -2.17

With Bifunctional epoxide hydrolase 2 (Homo sapiens, UniProt P34913) as the test system, CCOC(=O)CNC(=O)NC1CC2CCC1(C)C2(C)C (stereo not drawn) showed log10(IC50) of 0.34

With Bifunctional epoxide hydrolase 2 (Homo sapiens, UniProt P34913) as the test system, CC1(C)C2CCC1(C)C(NC(=O)Nc1ccc(OC(F)(F)F)cc1)C2 (stereo not drawn) showed log10(IC50) of -2.60

With Bifunctional epoxide hydrolase 2 (Homo sapiens, UniProt P34913) as the test system, O=C(Nc1ccc(OC(F)(F)F)cc1)NC1CC2CCC1C2 (stereo not drawn) showed log10(IC50) of -3.40

With Bifunctional epoxide hydrolase 2 (Homo sapiens, UniProt P34913) as the test system, CC1(C)[C@@H]2CC[C@@]1(C)C(NC(=O)Nc1ccccc1F)C2 (mixture of isomers) showed log10(IC50) of -1.30

With Bifunctional epoxide hydrolase 2 (Homo sapiens, UniProt P34913) as the test system, CC1(C)C2CCC1(C)C(NC(=O)Nc1ccccc1F)C2 (stereo not drawn) showed log10(IC50) of -1.84

With Bifunctional epoxide hydrolase 2 (Homo sapiens, UniProt P34913) as the test system, O=C(NCCCCCCCCNC(=O)NC1CC2CCC1C2)NC1CC2CCC1C2 (stereo not drawn) showed log10(IC50) of -3.40

With Bifunctional epoxide hydrolase 2 (Homo sapiens, UniProt P34913) as the test system, "O=C(NCc1ccco1)NCC12CC3CC(CC(C3)C1)C2" showed log10(IC50) of -1.35

With Bifunctional epoxide hydrolase 2 (Homo sapiens, UniProt P34913) as the test system, O=C(NCCCCNC(=O)NC1CC2CCC1C2)NC1CC2CCC1C2 (stereo not drawn) showed log10(IC50) of -1.93

* * *

Please respond with reported pIC50 for every item in the list.
- TEST_SYSTEM: Bifunctional epoxide hydrolase 2 (Homo sapiens, UniProt P34913)
- Sequence (P34913 whole entry): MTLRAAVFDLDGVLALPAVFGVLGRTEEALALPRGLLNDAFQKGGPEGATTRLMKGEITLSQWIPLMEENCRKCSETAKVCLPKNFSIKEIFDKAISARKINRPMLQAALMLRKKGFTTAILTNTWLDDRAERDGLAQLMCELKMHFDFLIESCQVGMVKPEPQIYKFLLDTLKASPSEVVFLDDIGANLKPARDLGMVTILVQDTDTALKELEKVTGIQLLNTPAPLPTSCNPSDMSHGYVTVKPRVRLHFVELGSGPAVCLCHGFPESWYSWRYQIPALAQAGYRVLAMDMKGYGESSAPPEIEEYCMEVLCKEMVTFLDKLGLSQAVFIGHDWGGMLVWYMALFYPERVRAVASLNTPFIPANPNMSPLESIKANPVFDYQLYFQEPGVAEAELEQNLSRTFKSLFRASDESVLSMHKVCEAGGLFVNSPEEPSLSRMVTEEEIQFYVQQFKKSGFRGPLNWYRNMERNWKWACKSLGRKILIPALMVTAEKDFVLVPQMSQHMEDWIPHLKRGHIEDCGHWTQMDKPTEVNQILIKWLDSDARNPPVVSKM
- ASSAY_NOTES: Inhibition of human soluble epoxide hydrolase by kinetic fluorescent assay
Entry type: numeric. Quantity: pIC50, the -log10 of concentration in molar units.

Lookup result for CCOC(=O)CNC(=O)NC1CC2CCC1C2 (stereo not given) ; measured pIC50: 5.80

Lookup result for CC1(C)[C@H]2CC[C@]1(C)C(NC(=O)Nc1ccccc1F)C2 (mixture of isomers) ; measured pIC50: 8.43

Lookup result for O=C(NCC12CC3CC(CC(C3)C1)C2)NC1CC2C=CC1C2 (stereo not given) ; measured pIC50: 9.15

Lookup result for "O=C(NCCCCNC(=O)NCc1ccco1)NCc1ccco1" ; measured pIC50: 5.74

Lookup result for O=C(NC1CC2C=CC1C2)N[C@H]1CC[C@H](Oc2ccc(C(=O)O)cc2)CC1 (stereo not given in full) ; measured pIC50: 8.82

Lookup result for CC1(C)C2CCC1(C)C(NC(=O)NCCCCCCCCNC(=O)NC1CC3CCC1(C)C3(C)C)C2 (stereo not given) ; measured pIC50: 9.40

Lookup result for O=C(NCCCCCCCCCCNC(=O)NC1CC2C=CC1C2)NC1CC2C=CC1C2 (stereo not given) ; measured pIC50: 9.40

Lookup result for "O=C(NCc1ccco1)Nc1ccccc1F" ; measured pIC50: 6.20

Lookup result for CC12CCC(NC(=O)N[C@H]3CC[C@H](Oc4ccc(C(=O)O)cc4)CC3)(OC1=O)C2(C)C (stereo not given in full) ; measured pIC50: 7.45

Lookup result for CC1(C)C2CCC1(C)C(NC(=O)NCCCCNC(=O)NC1CC3CCC1(C)C3(C)C)C2 (stereo not given) ; measured pIC50: 8.64
